molecular target: Cytochrome P450 3A4 (Homo sapiens, UniProt P08684); test: Inhibition of CYP3A4 (unknown origin) in the presence of midozolam; type: ADME
Sequence (P08684 whole entry): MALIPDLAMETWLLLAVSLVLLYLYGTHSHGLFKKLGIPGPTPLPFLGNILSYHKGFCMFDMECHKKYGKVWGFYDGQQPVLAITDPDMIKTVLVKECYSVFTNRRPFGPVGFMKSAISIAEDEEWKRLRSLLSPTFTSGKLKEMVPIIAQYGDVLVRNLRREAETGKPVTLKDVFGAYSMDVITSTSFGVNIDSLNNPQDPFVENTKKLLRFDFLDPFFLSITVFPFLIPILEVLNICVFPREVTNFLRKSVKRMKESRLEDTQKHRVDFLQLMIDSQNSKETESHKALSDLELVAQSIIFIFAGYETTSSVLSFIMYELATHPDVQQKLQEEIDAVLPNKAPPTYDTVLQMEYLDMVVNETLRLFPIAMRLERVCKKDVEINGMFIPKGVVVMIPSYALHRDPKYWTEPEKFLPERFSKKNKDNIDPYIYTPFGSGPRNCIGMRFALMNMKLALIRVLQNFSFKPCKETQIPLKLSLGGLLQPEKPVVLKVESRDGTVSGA
attribute-measured: IC50 (µM)

A. CC[C@@H]1C[C@H](N(Cc2cc(C(F)(F)F)cc(C(F)(F)F)c2)c2ncc(N3CCOCC3)cn2)C[C@H](CC)N1C(=O)O[C@H]1CC[C@H](C(=O)O)CC1
B. CC[C@@H]1C[C@H](N(Cc2cc(C(F)(F)F)cc(C(F)(F)F)c2)c2ncc(-c3cnn(C)c3)cn2)C[C@H](CC)N1C(=O)O[C@H]1CC[C@H](C(=O)O)CC1
C. CC[C@@H]1C[C@H](N(Cc2cc(C(F)(F)F)cc(C(F)(F)F)c2)c2ncc(N3CCOCC3)cn2)C[C@H](CC)N1C(=O)OC(C)C
Ask: Please sort the compounds listed above from highest to lowest IC50. Please express your ranking as an ordered list of the labels.
Reply: A, B, C

The origin of these recorded values is ChEMBL document CHEMBL4028876.
